# assay method text: Cytotoxicity against human PC3 cells assessed as decrease in ATP level at 100 ug/ml incubated for 3 hrs by Cell-titer Glo assay relative to control
# Format: cell-based, PC-3
# assay conditions: at 100 µg/mL, read-out: INH
measured quantity: cytotoxicity at 3 h, 100 ug/ml (%)
One number for each entry, in %.

Entry "C=C[C@]1(C)C[C@@H](OC(=O)CSC(C)(C)CNC(=O)[C@H](N)C(C)C)[C@]2(C)[C@H](C)CC[C@]3(CCC(=O)[C@H]32)[C@@H](C)[C@@H]1O" : reported cytotoxicity at 3 h, 100 ug/ml = ? 22
